Could you please report measured inhibition in vivo at 30 mg/kg for the items listed next?
System: L-687,414-induced hyperlocomotion
Test method notes: L-687,414-induced hyperlocomotion
Type: in vivo, mouse
Recorded conditions: Mus musculus; Dose ip 30 mg/kg, mice, 50 mg/kg s.c. L-687,414
Numbers only, in %.

Compound	Observable	Value measured
Cc1ncc(-c2ccc3c(c2)N(c2ccnnc2)C(=O)C3(C)C)cn1 [Example 120]	inhibition in vivo at 30 mg/kg	90.8
Cc1cc(N2C(=O)C(C)(C)c3ccc(-n4cnc(C)c4)cc32)ccn1 [Example 22]	inhibition in vivo at 30 mg/kg	63.8
Cc1ncc(-c2ccc3c(c2)N(c2ccnc(F)c2)C(=O)C3(C)C)cn1 [Example 45]	inhibition in vivo at 30 mg/kg	80.5

Record inhibition in vivo at 30 mg/kg per entry; entries follow.
1. Cc1ncc(-c2ccc3c(c2)N(c2ncn(C)n2)C(=O)C3(C)C)cn1 [Example 82]
2. Cc1ncc(-c2ccc3c(c2)N(c2nc(C)n(C)n2)C(=O)C3(C)C)cn1 [Example 78]

Out:
89.6
89.9

Report inhibition in vivo at 30 mg/kg for every entry below.
1. Cc1ncc(-c2ccc3c(c2)N(c2ccncn2)C(=O)C3(C)C)cn1 [Example 93]
2. Cc1ncc(-c2ccc3c(c2)N(c2nccnc2C)C(=O)C3(C)C)cn1 [Example 127]
3. Cc1ncc(-c2ccc3c(c2)N(c2ncc(C)s2)C(=O)C3(C)C)cn1 [Example 125]

Out:
1. 92.4
2. 72.8
3. 52

Values compiled from patent US20230391778A1.
